# ASSAY OVERVIEW: Metabolic stability in Wistar rat plasma at 39 MBq, iv after 60 mins
# Type: ADME, organism-based
# CONDITION INFO: read-out: Stability
QUANTITY KIND: remaining at 1 h

Item: CCN(CC)CCNC(=O)c1c(C)[nH]c(/C=C2\C(=O)Nc3ccc(O[11CH3])cc32)c1C | remaining at 1 h: > 70%
